# Assayed system: T1, Anti-CD28 Fab (SEQ ID NOs: 696, 697)
# T1 construct: Used biotinylated and captured on neutravidin coated plates in the phage ELISA
# T1 sequence (VH, as listed by the source, chain 1 of 2): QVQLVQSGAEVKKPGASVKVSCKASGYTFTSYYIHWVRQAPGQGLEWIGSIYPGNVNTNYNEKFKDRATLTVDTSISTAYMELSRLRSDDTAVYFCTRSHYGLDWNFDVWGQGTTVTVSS
# T1 sequence (VL, as listed by the source, chain 2 of 2): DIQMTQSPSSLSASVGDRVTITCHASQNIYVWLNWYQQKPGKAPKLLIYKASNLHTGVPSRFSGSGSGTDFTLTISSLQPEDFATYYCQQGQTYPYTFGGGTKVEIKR
# Procedure text: phage ELISA; biotinylated Fab on neutravidin plate, clonal phage supernatant, anti-M13 HRP detection
Where no end group is shown, it is not given here.
Measured parameter: Phage binding ELISA, Anti-CD28 Fab (SEQ ID NOs: 696, 697) signal
Please give only the number in your answer, with no unit.

The following binders have reported results that may help.
YCDGHLPRFMVKCL (cysteine pairing not given here; also: fused to phage pIII protein, pIII and linker sequence not given here, Peptide-87 library clone on clonal phage (crude supernatant); not shown: fused to the pIII filament protein of the bacteriophage) [Phage-1286]; 0.69
YCEGHAQQYMLKCL (cysteine pairing not given here; also: fused to phage pIII protein, pIII and linker sequence not given here, Peptide-87 library clone on clonal phage (crude supernatant); not shown: fused to the pIII filament protein of the bacteriophage) [Phage-1278]; 0.74
YCEGHLPWYMSKCL (cysteine pairing not given here; also: fused to phage pIII protein, pIII and linker sequence not given here, Peptide-87 library clone on clonal phage (crude supernatant); not shown: fused to the pIII filament protein of the bacteriophage) [Phage-1284]; 0.69
YCAGHIGEYMDKCL (cysteine pairing not given here; also: fused to phage pIII protein, pIII and linker sequence not given here, Peptide-87 library clone on clonal phage (crude supernatant); not shown: fused to the pIII filament protein of the bacteriophage) [Phage-1275]; 0.75
YCDGHAGIYVLKCL (cysteine pairing not given here; also: fused to phage pIII protein, pIII and linker sequence not given here, Peptide-87 library clone on clonal phage (crude supernatant); not shown: fused to the pIII filament protein of the bacteriophage) [Phage-1276]; 0.75
YCAGHSVQYMYKCL (cysteine pairing not given here; also: fused to phage pIII protein, pIII and linker sequence not given here, Peptide-87 library clone on clonal phage (crude supernatant); not shown: fused to the pIII filament protein of the bacteriophage) [Phage-1279]; 0.74

Exercise: I'd like to know its Phage binding ELISA, Anti-CD28 Fab (SEQ ID NOs: 696, 697) signal. The binder in question is YCQGHALQYLQKCL (cysteine pairing not given here; also: fused to phage pIII protein, pIII and linker sequence not given here, Peptide-87 library clone on clonal phage (crude supernatant); not shown: fused to the pIII filament protein of the bacteriophage) [Phage-1282]
Solution: 0.71

Exercise: Moving on to the next binder: YCAGHMPQYMSKCL (cysteine pairing not given here; also: fused to phage pIII protein, pIII and linker sequence not given here, Peptide-87 library clone on clonal phage (crude supernatant); not shown: fused to the pIII filament protein of the bacteriophage) [Phage-1281]
Solution: 0.72

Exercise: Moving on to the next binder: YCDGHHLEYIDKCL (cysteine pairing not given here; also: fused to phage pIII protein, pIII and linker sequence not given here, Peptide-87 library clone on clonal phage (crude supernatant); not shown: fused to the pIII filament protein of the bacteriophage) [Phage-1285]
Solution: 0.69

Exercise: Moving on to the next binder: YCEGHFGMYMSKCL (cysteine pairing not given here; also: fused to phage pIII protein, pIII and linker sequence not given here, Peptide-87 library clone on clonal phage (crude supernatant); not shown: fused to the pIII filament protein of the bacteriophage) [Phage-1280]
Solution: 0.73

Exercise: Moving on to the next binder: YCEGHSSEYMVKCL (cysteine pairing not given here; also: displayed on phage by fusion to pIII, linker and pIII sequence not given here, Peptide-87 library clone on clonal phage (crude supernatant); not shown: fused to the pIII filament protein of the bacteriophage) [Phage-1273]
Solution: 0.77
